Values from the supplement of paper PMC10126150

- System: ATP;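 also: ATP exposure 15 min at 22 °C before imaging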
- experimental.protocol: switch fluorescence ratio, 500 uM ATP over buffer (Cy3 cluster intensity, sum of 5 cycles each) (fold (ratio)); higher = stronger signal-on switching upon ATP binding; sequences stand for … in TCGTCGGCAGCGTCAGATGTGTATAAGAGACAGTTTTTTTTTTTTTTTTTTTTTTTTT…TC
- experimental.setup: aptamer strand: ATP DNA aptamer (quencher-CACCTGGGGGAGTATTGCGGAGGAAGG + anchor), 100 nM annealed; ATP concentration: 500 uM
Kindly return TRUE if reported switch fluorescence ratio is no lower than 1; return FALSE if it is lower.

Before answering, review these 2 worked examples.
{"construct.sequence": "GCCATTTTGA", "target.entity": "ATP", "qualitative.label": "FALSE"}
{"construct.sequence": "GAGGGTGGGC", "target.entity": "ATP", "qualitative.label": "TRUE"}

Q) Say whether `TGATTCATTG` shows switch fluorescence ratio of 1 or more.
A) TRUE
